# Experiment Description: Solubility of CD101 acetate in various media
# Type: physicochemical
# Recorded Conditions: 0.9% saline with 0.125% Tween 80, aqueous with cosolvent or surfactant or cyclodextrin; 0.9% Saline (USP) with 0.125% Tween 80; read-out: Solubility
Starred links: 1 amine or outer side, 2 acyl side, 3 side chain; linkers in the order of their positions; H or OH if unused. Positions of bridges follow the written chain, without caps; N, C: chain ends. Non-standard residues stand in square brackets, D forms with d. Residues, ends and D or L forms follow the SMILES beside them. *: point of attachment. Orn(4R-OH,5R-OCH2CH2NMe3+) = C[N+](C)(C)CCO[C@@H](N[*:3])[C@H](O)C[C@H](N[*:1])C(=O)[*:2]; pTerphenylCO(4''-OnC5H11) = CCCCCOc1ccc(-c2ccc(-c3ccc(C(=O)*)cc3)cc2)cc1; hTyr(3S-OH,4S-OH) = N[C@H](C(=O)O)[C@H](O)[C@@H](O)c1ccc(O)cc1; Pro(3S-OH,4S-Me) = C[C@H]1CN[C@H](C(=O)O)[C@H]1O; Hyp = O=C(O)[C@@H]1C[C@@H](O)CN1
Attribute Measured: solubility

Short answer for CCCCCOc1ccc(-c2ccc(-c3ccc(C(=O)N[C@H]4C[C@@H](O)[C@@H](OCC[N+](C)(C)C)NC(=O)[C@@H]5[C@@H](O)[C@@H](C)CN5C(=O)[C@H]([C@@H](C)O)NC(=O)[C@H]([C@H](O)[C@@H](O)c5ccc(O)cc5)NC(=O)[C@@H]5C[C@@H](O)CN5C(=O)[C@H]([C@@H](C)O)NC4=O)cc3)cc2)cc1 [CD101 acetate] ({pTerphenylCO(4''-OnC5H11)}-[Orn(4R-OH,5R-OCH2CH2NMe3+)]T[Hyp][hTyr(3S-OH,4S-OH)]T[Pro(3S-OH,4S-Me)]; lactam 1-C) : solubility was > 800 µg/mL
